Data credit: ChEMBL document CHEMBL4196201

These records show GI50 for Mast/stem cell growth factor receptor Kit (Homo sapiens).
observed_property: GI50 (nM)

• Cn1cc(-c2cc3c(N4CCN(c5ncc([C@@](C)(N)c6ccc(F)cc6)cn5)CC4)ncnn3c2)cn1 = 167
• COCCOc1cc(F)c2c(Nc3ccc(NC(=O)Cn4cc(C(C)C)nn4)cc3)ncnc2c1 = 2
• Cc1ccc(NC(=O)c2ccc(CN3CCN(C)CC3)cc2)cc1Nc1nccc(-c2cccnc2)n1 = 192
• CNC(=O)c1cc(Oc2ccc(NC(=O)Nc3ccc(Cl)c(C(F)(F)F)c3)c(F)c2)ccn1 = 114

* * *

# assay_target: UniProt:P35968
# Sequence (P35968 whole entry): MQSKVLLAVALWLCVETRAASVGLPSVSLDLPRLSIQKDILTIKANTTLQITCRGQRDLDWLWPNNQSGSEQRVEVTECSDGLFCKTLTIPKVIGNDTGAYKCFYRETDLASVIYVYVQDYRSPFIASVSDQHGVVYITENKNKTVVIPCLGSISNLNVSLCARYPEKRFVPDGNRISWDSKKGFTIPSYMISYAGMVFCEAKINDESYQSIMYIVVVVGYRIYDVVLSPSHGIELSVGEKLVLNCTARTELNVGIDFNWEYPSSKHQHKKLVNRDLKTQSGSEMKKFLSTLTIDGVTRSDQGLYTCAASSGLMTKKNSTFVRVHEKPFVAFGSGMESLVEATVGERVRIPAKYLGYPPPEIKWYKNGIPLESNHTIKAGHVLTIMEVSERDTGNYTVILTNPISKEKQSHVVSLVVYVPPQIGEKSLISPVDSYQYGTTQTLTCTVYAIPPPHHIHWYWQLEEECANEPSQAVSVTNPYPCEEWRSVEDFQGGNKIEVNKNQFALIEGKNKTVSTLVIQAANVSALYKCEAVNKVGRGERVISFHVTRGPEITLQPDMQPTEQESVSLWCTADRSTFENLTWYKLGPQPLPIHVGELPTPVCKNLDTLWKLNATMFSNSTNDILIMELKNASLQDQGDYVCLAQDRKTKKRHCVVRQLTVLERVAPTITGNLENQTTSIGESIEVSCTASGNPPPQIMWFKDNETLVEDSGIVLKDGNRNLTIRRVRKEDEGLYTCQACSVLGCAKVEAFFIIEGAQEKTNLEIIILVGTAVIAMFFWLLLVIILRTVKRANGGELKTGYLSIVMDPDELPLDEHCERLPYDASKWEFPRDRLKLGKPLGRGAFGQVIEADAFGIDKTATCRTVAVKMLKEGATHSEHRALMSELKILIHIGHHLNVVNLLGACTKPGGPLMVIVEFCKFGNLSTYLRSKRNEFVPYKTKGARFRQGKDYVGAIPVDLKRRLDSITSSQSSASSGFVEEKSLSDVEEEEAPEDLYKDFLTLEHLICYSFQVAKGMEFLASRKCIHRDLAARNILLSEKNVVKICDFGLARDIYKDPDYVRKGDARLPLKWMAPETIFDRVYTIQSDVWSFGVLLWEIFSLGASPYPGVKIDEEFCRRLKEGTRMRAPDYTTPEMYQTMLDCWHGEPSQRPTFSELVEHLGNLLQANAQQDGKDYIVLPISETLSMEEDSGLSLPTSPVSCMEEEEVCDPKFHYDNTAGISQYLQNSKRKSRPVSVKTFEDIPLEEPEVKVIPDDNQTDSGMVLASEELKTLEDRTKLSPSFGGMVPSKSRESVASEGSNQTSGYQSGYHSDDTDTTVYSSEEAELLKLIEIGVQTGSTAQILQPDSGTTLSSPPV
observed_property: GI50

• CCn1cc(CC(=O)Nc2ccc(Oc3ncnc4cc(OC)c(OC)cc34)cc2OC)cn1 = 2550 nM
• COc1cc2ncnc(Oc3cnc(CC(=O)Nc4cnn(C(C)C)c4)c(OC)c3)c2cc1OC = 8030 nM
• COc1cc2ncnc(Oc3ccc(CC(=O)Nc4cnn(C(C)C)c4)cc3)c2cc1OC = 93 nM
• COc1cc2nccc(Oc3ccc(NC(=O)Cc4cnn(C(C)C)c4)nc3)c2cc1OC = 761 nM
• CNC(=O)c1cc(Oc2ccc(NC(=O)Nc3ccc(Cl)c(C(F)(F)F)c3)c(F)c2)ccn1 = 114 nM
• COc1ccc2c(Oc3ccc(CC(=O)Nc4cn(C)nc4C)c(OC)c3)ccnc2c1 = 2670 nM
• COCCOc1cc(F)c2c(Nc3ccc(NC(=O)Cn4cc(C(C)C)nn4)cc3)ncnc2c1 = 1380 nM
• CCn1c(=O)c(-c2cc(NC(=O)Nc3ccccc3)c(F)cc2Br)cc2cnc(NC)cc21 = 98 nM
• Cn1cc(-c2cc3c(N4CCN(c5ncc([C@@](C)(N)c6ccc(F)cc6)cn5)CC4)ncnn3c2)cn1 = 4950 nM
• COc1cc(OC)c2c(Nc3ccc(NC(=O)Cn4cc(C(C)C)nn4)cc3)ncnc2c1 = 5410 nM

* * *

# assay_explanation: Half life in Han Wistar rat at […], po
# Format: ADME, organism-based
# condition: in vivo
observed_property: half-life (h)

* COCCOc1cc(F)c2c(Nc3ccc(NC(=O)Cn4cc(C(C)C)nn4)cc3)ncnc2c1 | 3

* * *

# assay_explanation: Intrinsic clearance in mouse hepatocytes assessed per million cells
# Assay type: ADME, cell-based, Hepatocyte
# condition: read-out: CLH
observed_property: hepatocyte CLint (µL/min/1e6 cells)

- COCCOc1cc(F)c2c(Nc3ccc(NC(=O)Cn4cc(C(C)C)nn4)cc3)ncnc2c1: 5

* * *

# assay_target: Mast/stem cell growth factor receptor Kit (Homo sapiens)
observed_property: GI50 (nM)

• COCCOc1cc(F)c2c(Nc3ccc(NC(=O)Cn4cc(C(C)C)nn4)cc3)ncnc2c1 = 1
• Cn1cc(-c2cc3c(N4CCN(c5ncc([C@@](C)(N)c6ccc(F)cc6)cn5)CC4)ncnn3c2)cn1 = 78
• CCN(CC)CCNC(=O)c1c(C)[nH]c(/C=C2\C(=O)Nc3ccc(F)cc32)c1C = 4
• Cc1ccc(NC(=O)c2ccc(CN3CCN(C)CC3)cc2)cc1Nc1nccc(-c2cccnc2)n1 = 17

* * *

# assay_target: Platelet-derived growth factor receptor beta (Homo sapiens) (UniProt P09619)
# Sequence (P09619 whole entry, the tested form may be a part): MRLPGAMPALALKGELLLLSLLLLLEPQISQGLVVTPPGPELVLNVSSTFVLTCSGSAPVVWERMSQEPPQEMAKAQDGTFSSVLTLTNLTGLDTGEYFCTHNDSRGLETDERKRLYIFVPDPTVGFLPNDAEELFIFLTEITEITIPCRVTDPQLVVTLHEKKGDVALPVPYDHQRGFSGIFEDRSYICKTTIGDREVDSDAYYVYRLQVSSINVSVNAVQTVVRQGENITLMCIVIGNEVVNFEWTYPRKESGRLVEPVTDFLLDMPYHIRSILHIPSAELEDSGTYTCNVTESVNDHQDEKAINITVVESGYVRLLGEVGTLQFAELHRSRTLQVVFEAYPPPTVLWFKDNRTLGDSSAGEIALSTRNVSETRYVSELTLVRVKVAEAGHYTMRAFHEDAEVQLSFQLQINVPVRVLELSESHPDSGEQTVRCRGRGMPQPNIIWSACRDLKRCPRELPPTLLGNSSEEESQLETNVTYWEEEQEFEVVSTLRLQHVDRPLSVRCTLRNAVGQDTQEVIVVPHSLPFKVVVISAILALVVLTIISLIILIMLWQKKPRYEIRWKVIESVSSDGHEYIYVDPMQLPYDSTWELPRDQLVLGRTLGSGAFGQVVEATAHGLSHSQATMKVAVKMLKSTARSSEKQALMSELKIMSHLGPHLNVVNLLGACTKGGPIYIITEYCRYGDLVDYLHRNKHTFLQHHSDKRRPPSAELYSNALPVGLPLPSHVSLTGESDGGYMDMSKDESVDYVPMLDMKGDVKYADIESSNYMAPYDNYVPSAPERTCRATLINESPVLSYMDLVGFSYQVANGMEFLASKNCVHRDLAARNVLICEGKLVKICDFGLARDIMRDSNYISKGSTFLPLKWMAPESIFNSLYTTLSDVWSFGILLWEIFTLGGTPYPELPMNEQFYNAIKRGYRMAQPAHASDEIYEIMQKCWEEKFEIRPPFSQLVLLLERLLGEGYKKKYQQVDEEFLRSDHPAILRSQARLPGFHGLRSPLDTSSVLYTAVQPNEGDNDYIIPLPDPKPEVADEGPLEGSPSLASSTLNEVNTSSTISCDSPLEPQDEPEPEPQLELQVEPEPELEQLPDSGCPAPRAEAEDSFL
# assay_explanation: Inhibition of TEL-fused PDGFRbeta (unknown origin) transfected in mouse BA/F3 cells assessed as inhibition of cell growth incubated for 72 hrs by MTS assay
# Type: cell-based
Rule for this label: TRUE means GI50 is less than 0.04 µM; FALSE means GI50 is at least 0.04 µM.

- CCN(CC)CCNC(=O)c1c(C)[nH]c(/C=C2\C(=O)Nc3ccc(F)cc32)c1C: FALSE
- CCn1c(=O)c(-c2cc(NC(=O)Nc3ccccc3)c(F)cc2Br)cc2cnc(NC)cc21: FALSE
- Cn1cc(-c2cc3c(N4CCN(c5ncc([C@@](C)(N)c6ccc(F)cc6)cn5)CC4)ncnn3c2)cn1: TRUE
- Cc1ccc(NC(=O)c2ccc(CN3CCN(C)CC3)cc2)cc1Nc1nccc(-c2cccnc2)n1: FALSE
- CNC(=O)c1cc(Oc2ccc(NC(=O)Nc3ccc(Cl)c(C(F)(F)F)c3)c(F)c2)ccn1: TRUE
